Quick list: Ki per entry.
# experimentalTarget: human A3 receptors (Homo sapiens)
# Construct: expressed in transfected cells; host or cells: HEK-293 cells (membranes)
# Sequence (P0DMS8 whole entry): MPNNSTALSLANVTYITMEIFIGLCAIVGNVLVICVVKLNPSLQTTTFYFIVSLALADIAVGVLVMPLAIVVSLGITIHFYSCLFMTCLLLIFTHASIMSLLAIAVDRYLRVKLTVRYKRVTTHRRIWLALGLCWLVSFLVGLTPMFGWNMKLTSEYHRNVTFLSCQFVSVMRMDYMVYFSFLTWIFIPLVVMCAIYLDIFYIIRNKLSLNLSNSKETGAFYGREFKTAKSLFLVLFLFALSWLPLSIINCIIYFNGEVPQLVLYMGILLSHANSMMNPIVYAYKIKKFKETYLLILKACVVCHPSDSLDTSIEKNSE
# experimentalProtocol: radioligand binding, displacement of specific [125I]AB-MECA binding at human A3 receptors expressed in HEK-293 cells
# appliedConditions: Table 9; [125I]AB-MECA, HEK membranes; read-out: Ki hA3
# do not omit the unit; it follows the number

Incoming: Form field: reported Ki of CCOC(=O)C1=C(C)NC(C)=C(C(=O)OC)C1C#Cc1ccccc1 (stereo not drawn) [Compound 76]
Outgoing: 0.94 µM

Incoming: Which value of Ki has been reported for CCOC(=O)C1=C(C)NC(C)=C(C(=O)OC)C1c1ccc2c(c1)OCO2 (racemic) [Compound 73] in the records?
Outgoing: 4.58 µM

Incoming: Would you kindly share the measured Ki for COCCOC(=O)C1=C(C)NC(C)=C(C(=O)OC(C)C)C1c1cccc([N+](=O)[O-])c1 (stereo not drawn) [Compound 64, reference compound] ?
Outgoing: 8.47 µM

Sourced from patent US6066642A
